Test system: Hepatocyte
Test: Drug metabolism in Wistar rat hepatocytes assessed as ratio of 10,11-epoxide metabolite level to parent compound level at 50 uM incubated for 6 hrs by HPLC and LC-MS/Ms method
Format: ADME, cell-based
Ratio under 0.2 gets Condition met, anything at or over 0.2 gets Condition not met.

- Molecule: "NC(=O)N1c2ccc(Br)cc2C=Cc2cc(Br)ccc21"
  Discrete label: "Condition met"
- Molecule: "NC(=O)N1c2ccccc2C=Cc2ccccc21 [CARBAMAZEPINE]"
  Discrete label: "Condition not met"
- Molecule: "NC(=O)N1c2ccc(Cl)cc2C=Cc2cc(Cl)ccc21"
  Discrete label: "Condition met"
- Molecule: "NC(=O)N1c2ccccc2C=Cc2cc(Cl)ccc21"
  Discrete label: "Condition not met"
- Molecule: "NC(=O)N1c2ccccc2C=Cc2cc(F)ccc21"
  Discrete label: "Condition not met"
- Molecule: "NC(=O)N1c2ccc(F)cc2C=Cc2cc(F)ccc21"
  Discrete label: "Condition met"

----------
System: Hepatocyte
Assay: Drug metabolism in Wistar rat hepatocytes assessed as ratio of epoxide N-glucuronide metabolite level to parent compound level at 50 uM incubated for 6 hrs by HPLC and LC-MS/Ms method
Format: ADME, cell-based
Record true whenever Ratio is at 0.1 or higher; record false when lower.

- Molecule: "NC(=O)N1c2ccc(F)cc2C=Cc2cc(F)ccc21"
  Discrete label: "false"
- Molecule: "NC(=O)N1c2ccccc2C=Cc2cc(F)ccc21"
  Discrete label: "true"
- Molecule: "NC(=O)N1c2ccc(Cl)cc2C=Cc2cc(Cl)ccc21"
  Discrete label: "true"
- Molecule: "NC(=O)N1c2ccccc2C=Cc2cc(Cl)ccc21"
  Discrete label: "true"
- Molecule: "NC(=O)N1c2ccccc2C=Cc2ccccc21 [CARBAMAZEPINE]"
  Discrete label: "true"
